# Subject of test: T1, Antibody 178-09_His B.1.1.7 (27080) (SARS-CoV-2, UniProt P0DTC2 14-685)
# T1 construct: domain: S1; also called TB178-9
# Method notes: Carterra SPR
Decide using Kd alone. Strictly below 20 nM: Criterion met. Equal to or above 20 nM: Criterion not met.

Req: Threshold test, Kd < 20 nM: 7-26 (VHH) VHH: EVQLVESGGGLVQPGGSLRLSCAASGSTFSINAMGWFRQAPGKEREFVAGITSSGGYTNYADSVKGRFTISADNSKNTAYLQMNSLKPEDTAVYYCAADGVPEYSDYASGPVWGQGTLVTVSS
Resp: Criterion not met

Req: Threshold test, Kd < 20 nM: 7-21 (VHH) VHH: EVQLVESGGGLVQPGGSLRLSCAASGRTISRYTMGWFRQAPGKEREFVASITSGGSTAYADSVKGRFTISADNSKNTAYLQMNSLKPEDTAVYYCAKEDVGKPFDWGQGTLVTVSS
Resp: Criterion not met

Req: Threshold test, Kd < 20 nM: 7-14 (VHH) VHH: EVQLVESGGGLVQPGGSLRLSCAASGSTFSINAMGWFRQAPGKEREFVAGISRGGTTNYADSVKGRFTISADNSKNTAYLQMNSLKPEDTAVYYCAADGVPEYSDYASGPVWGQGTLVTVSS
Resp: Criterion met

Req: Threshold test, Kd < 20 nM: 7-37 (VHH) VHH: EVQLVESGGGLVQPGGSLRLSCAASGSTLSINAMGWFRQAPGKEREFVAGITRSGSVTNYADSVKGRFTISADNSKNTAYLQMNSLKPEDTAVYYCAADGVPEYSDYASGPVWGQGTLVTVSS
Resp: Criterion met

Req: Threshold test, Kd < 20 nM: 7-29 (VHH, not shown: a dimerising Fc or GST) VHH: EVQLVESGGGLVQPGGSLRLSCAASGRTHSIYPMGWFRQAPGKEREFVASITSYGDTNYADSVKGRFTISADNSKNTAYLQMNSLKPEDTAVYYCAARRWIPPGPIWGQGTLVTVSS
Resp: Criterion not met

Req: Threshold test, Kd < 20 nM: 8-10 (VHH, not shown: a dimerising Fc or GST) VHH: EVQLVESGGGLVQPGGSLRLSCAASGFIGNYHAMGWFRQAPGKEREFVAAVTWSGGTTNYADSVKGRFTISADNSKNTAYLQMNSLKPEDTAVYYCAREGYYYDSSGYPYYFDYWGQGTLVTVSS
Resp: Criterion not met

Ref: patent US20230265217A1
